Test system: Mus musculus
PROCEDURE_DETAILS: In vivo lowering of blood glucose levels in diabetic obese ob/ob mice by measuring postprandial blood glucose level on day1 after 4 hours at 300 uM/kg oral dose
Format: functional
Short version: Efficacy at least 10% is true (1), less is false (0).

MOL_SMILES: O=C1CC[C@]2(c3ccc4c(c3)CCc3ccccc3-4)O[C@H](COc3ccc(Cl)cc3)CN12
QUALITATIVE_LABEL: true (1)
//
MOL_SMILES: O=C1CC[C@]2(c3ccc(F)cc3)O[C@H](COc3ccc(Cl)cc3)CN12
QUALITATIVE_LABEL: true (1)
//
MOL_SMILES: O=C1CC[C@]2(c3ccc(Cl)cc3)OCCN12
QUALITATIVE_LABEL: false (0)
//
MOL_SMILES: CC(=O)N1C[C@H](COc2ccc(Cl)cc2)O[C@@H]1c1ccc(Cl)cc1
QUALITATIVE_LABEL: false (0)
//
MOL_SMILES: OCc1cc(-c2ccc(Cl)cc2)no1
QUALITATIVE_LABEL: false (0)
//
MOL_SMILES: COC(=O)N1C[C@H](COc2ccc(Cl)cc2)O[C@@H]1c1ccc(Cl)c(Cl)c1
QUALITATIVE_LABEL: true (1)
//
MOL_SMILES: CS(=O)(=O)N1C[C@H](COc2ccc(Cl)cc2)O[C@@H]1c1ccc(Cl)cc1
QUALITATIVE_LABEL: false (0)
//
MOL_SMILES: O=C1CC[C@]2(c3ccc(Oc4ccccc4)cc3)OCCN12
QUALITATIVE_LABEL: true (1)
//
MOL_SMILES: COc1ccc([C@]23CCC(=O)N2C[C@@H](COc2ccc(Cl)cc2)O3)cc1
QUALITATIVE_LABEL: false (0)
//
MOL_SMILES: O=C1CCC[C@]2(c3ccc(Oc4ccccc4)cc3)OCCN12
QUALITATIVE_LABEL: true (1)
//
MOL_SMILES: O=C1CC[C@]2(c3ccc(Cl)cc3)SCCN12
QUALITATIVE_LABEL: false (0)

The reported numbers originate from ChEMBL document CHEMBL1131263.
